- ASSAY TARGET: ratMAO-A (Rattus norvegicus, UniProt P21396)
- Sequence (P21396 1-526): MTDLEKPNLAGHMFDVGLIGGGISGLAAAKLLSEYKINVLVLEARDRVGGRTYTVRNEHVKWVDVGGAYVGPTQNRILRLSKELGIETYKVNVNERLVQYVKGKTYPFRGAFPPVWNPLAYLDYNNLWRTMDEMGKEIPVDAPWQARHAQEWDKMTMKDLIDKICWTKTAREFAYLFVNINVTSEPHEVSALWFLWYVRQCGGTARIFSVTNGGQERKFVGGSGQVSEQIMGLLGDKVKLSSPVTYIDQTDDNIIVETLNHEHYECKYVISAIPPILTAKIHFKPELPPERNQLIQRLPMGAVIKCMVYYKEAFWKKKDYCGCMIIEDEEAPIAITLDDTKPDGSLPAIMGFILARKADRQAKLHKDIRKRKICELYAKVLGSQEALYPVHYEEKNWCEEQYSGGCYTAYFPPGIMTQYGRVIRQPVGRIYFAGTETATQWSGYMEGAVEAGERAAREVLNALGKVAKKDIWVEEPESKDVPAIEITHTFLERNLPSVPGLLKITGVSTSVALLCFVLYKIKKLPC
- PROTOCOL TEXT: MAO-A inhibition, radiometric method of Fowler and Tipton (14C 5-HT)
- Assay type: biochemical
- Set-up: MAO-A and MAO-B activities were determined in rat brain homogenate; from tissue; host or cells: rat brain homogenate per the methods
- MEASUREMENT PARAMETERS: 30 min pre-incubation at 37 °C; 100µM 5-HT; mean ± standard error of the mean
pIC50: −log10 of the molar value.

MOLECULE	ASSAY TARGET	QUALIFIER	pIC50
C#CCN(Cc1ccc(O)c2ncccc12)CC1CCN(Cc2ccccc2)CC1 [Compound 3]	ratMAO-A (Rattus norvegicus, UniProt P21396)	=	4.07
C#CCN(Cc1ccc(O)c2ncccc12)C(C#N)C1CCN(Cc2ccccc2)CC1 (centres unmarked) [Compound 2]	ratMAO-A (Rattus norvegicus, UniProt P21396)	=	4.66
C#CCN(CCC1CCN(Cc2ccccc2)CC1)Cc1ccc(O)c2ncccc12 [Compound 5]	ratMAO-A (Rattus norvegicus, UniProt P21396)	≤	4.00
C#CCN(CCCC1CCN(Cc2ccccc2)CC1)Cc1ccc(O)c2ncccc12 [Compound 7]	ratMAO-A (Rattus norvegicus, UniProt P21396)	≤	4.00
C#CCN(Cc1ccc(O)c2ncccc12)C(C#N)CC1CCN(Cc2ccccc2)CC1 (centres unmarked) [Compound 4]	ratMAO-A (Rattus norvegicus, UniProt P21396)	=	5.01

* * *

- ASSAY TARGET: ratMAO-B (Rattus norvegicus)
- Sequence (P19643 whole entry): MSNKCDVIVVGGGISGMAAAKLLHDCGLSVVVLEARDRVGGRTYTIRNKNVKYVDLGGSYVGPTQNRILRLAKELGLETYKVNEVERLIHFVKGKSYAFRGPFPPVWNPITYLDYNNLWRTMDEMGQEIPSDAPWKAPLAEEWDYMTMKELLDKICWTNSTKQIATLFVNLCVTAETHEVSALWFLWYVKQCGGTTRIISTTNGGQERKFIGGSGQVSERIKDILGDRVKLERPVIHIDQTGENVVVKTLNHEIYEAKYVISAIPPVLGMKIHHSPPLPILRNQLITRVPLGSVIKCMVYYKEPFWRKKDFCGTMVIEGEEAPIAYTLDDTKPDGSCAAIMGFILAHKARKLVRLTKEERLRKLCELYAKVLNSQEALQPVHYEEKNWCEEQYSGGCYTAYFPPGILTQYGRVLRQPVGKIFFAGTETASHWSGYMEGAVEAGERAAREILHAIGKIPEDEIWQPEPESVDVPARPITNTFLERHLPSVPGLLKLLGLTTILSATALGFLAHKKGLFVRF
- PROTOCOL TEXT: Kinetic study of MAO-B inhibition (Lineweaver-Burk plots)
- Type: biochemical
- Set-up: from tissue; host or cells: rat brain homogenate per the methods
- MEASUREMENT PARAMETERS: estimated from the slopes of double reciprocal plots

MOLECULE	Ki (µM)
C#CCN(Cc1ccc(O)c2ncccc12)C(C#N)CCC1CCN(Cc2ccccc2)CC1 (stereo not shown) [Compound 6]	10.8

* * *

- ASSAY TARGET: MAO-A (Rattus norvegicus, UniProt P21396)
- Construct: from tissue; host or cells: rat brain homogenate per the methods
- PROTOCOL TEXT: Time-dependence of MAO-A inhibition (pre-incubation times)
- Format: biochemical
- MEASUREMENT PARAMETERS: pre-incubation time 240 min
- Description: Lineweaver-Burk reciprocal plots of initial velocity and substrate concentrations (0.1-1 mM) are presented. […] Lineweaver-Burk reciprocal plots of initial velocity and substrate concentrations (0.1-1 mM) are presented. […] Lineweaver-Burk reciprocal plots of initial velocity and substrate concentrations (0.1-1 mM) are presented. […] Three consecutive centrifuges were performed with buffer. […] 5 µM). All solution were made using Tris buffer pH7.4. […] 5 µM). All solution were made using Tris buffer pH7.4. […]
pIC50: −log10 of the molar value.
EXPERIMENTAL READOUT: pIC50

MOLECULE	ASSAY TARGET	VALUE OBSERVED
C#CCN(Cc1ccc(O)c2ncccc12)C(C#N)CCC1CCN(Cc2ccccc2)CC1 (stereo not shown) [Compound 6]	MAO-A (Rattus norvegicus, UniProt P21396)	6.15

* * *

- ASSAY TARGET: ratMAO-B (Rattus norvegicus)
- PROTOCOL TEXT: MAO-B inhibition, radiometric method of Fowler and Tipton (14C PEA)
- Type: biochemical
- Set-up: MAO-A and MAO-B activities were determined in rat brain homogenate; from tissue; host or cells: rat brain homogenate per the methods

COMPOUND	MAO-B/ MAO-A
C#CCN(Cc1ccc(O)c2ncccc12)C(C#N)CCC1CCN(Cc2ccccc2)CC1 (stereo not shown) [Compound 6]	1.7
C#CCN(C)Cc1ccc(O)c2ncccc12 [Compound M-30]	1.5
C#CCN(Cc1ccc(O)c2ncccc12)C(C#N)CC1CCN(Cc2ccccc2)CC1 (stereo not shown) [Compound 4]	1.2
C#CCN(Cc1ccc(O)c2ncccc12)C(C#N)C1CCN(Cc2ccccc2)CC1 (stereo not shown) [Compound 2]	1.7

* * *

Examples of compounds with documented IC50 follow.
- ASSAY TARGET: equine serum butyrylcholinesterase (eqBuChE) (Equus caballus, UniProt P81908)
- Sequence (P81908 whole entry): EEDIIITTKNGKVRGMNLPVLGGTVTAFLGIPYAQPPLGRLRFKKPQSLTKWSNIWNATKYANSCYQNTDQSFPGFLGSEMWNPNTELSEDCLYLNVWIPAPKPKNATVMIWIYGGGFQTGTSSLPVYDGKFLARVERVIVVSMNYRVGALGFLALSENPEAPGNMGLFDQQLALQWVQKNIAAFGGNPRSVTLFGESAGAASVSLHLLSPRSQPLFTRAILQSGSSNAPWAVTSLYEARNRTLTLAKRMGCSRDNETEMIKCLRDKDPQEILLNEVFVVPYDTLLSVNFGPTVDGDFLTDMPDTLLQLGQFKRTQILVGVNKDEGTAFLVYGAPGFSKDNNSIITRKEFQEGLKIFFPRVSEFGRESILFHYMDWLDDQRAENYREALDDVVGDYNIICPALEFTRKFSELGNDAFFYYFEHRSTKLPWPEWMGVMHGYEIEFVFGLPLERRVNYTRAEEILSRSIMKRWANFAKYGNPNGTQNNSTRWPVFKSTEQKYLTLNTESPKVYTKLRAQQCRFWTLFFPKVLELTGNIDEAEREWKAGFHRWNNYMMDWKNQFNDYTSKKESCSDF
- PROTOCOL TEXT: biochemical
- Format: biochemical
- MEASUREMENT PARAMETERS: 20 minutes incubation at 37°C; mean ± standard error of the mean; read-out: IC50 eqBuChE

COMPOUND	IC50
C#CCN(CCCC1CCN(Cc2ccccc2)CC1)Cc1ccc(O)c2ncccc12	4.52 µM
C#CCN(Cc1ccc(O)c2ncccc12)C(C#N)C1CCN(Cc2ccccc2)CC1 (centres unmarked)	13.5 µM
C#CCN(Cc1ccc(O)c2ncccc12)C(C#N)CCC1CCN(Cc2ccccc2)CC1 (centres unmarked)	1.63 µM
C#CCN(CCC1CCN(Cc2ccccc2)CC1)Cc1ccc(O)c2ncccc12	14.5 µM
C#CCN(Cc1ccc(O)c2ncccc12)CC1CCN(Cc2ccccc2)CC1	12.8 µM

* * *

- ASSAY TARGET: equine serum butyrylcholinesterase (eqBuChE) (Equus caballus, UniProt P81908)
- PROTOCOL TEXT: biochemical
- Assay type: biochemical

MOLECULE	IC50, µM
C#CCN(Cc1ccc(O)c2ncccc12)C(C#N)CC1CCN(Cc2ccccc2)CC1 (stereo not shown) [Compound 4]	6.06

* * *

- ASSAY TARGET: EeAChE (Electrophorus electricus, UniProt O42275)
- Sequence (O42275 24-633): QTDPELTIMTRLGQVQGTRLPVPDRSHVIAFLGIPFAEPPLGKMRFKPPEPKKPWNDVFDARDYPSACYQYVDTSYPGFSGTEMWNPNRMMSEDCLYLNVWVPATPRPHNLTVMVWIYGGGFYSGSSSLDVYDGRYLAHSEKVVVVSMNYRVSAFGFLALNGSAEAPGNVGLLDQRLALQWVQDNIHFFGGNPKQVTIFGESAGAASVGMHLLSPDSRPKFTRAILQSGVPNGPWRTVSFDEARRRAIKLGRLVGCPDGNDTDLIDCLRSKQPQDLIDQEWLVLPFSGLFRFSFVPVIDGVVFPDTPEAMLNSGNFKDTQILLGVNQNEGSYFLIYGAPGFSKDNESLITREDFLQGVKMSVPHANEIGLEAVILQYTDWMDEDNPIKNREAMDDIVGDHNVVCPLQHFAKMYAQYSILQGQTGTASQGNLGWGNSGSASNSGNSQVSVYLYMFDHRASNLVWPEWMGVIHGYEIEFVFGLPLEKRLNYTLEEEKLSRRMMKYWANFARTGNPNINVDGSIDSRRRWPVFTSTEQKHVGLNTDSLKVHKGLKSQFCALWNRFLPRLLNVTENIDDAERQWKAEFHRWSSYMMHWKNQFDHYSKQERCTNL
pKi: −log10 of the molar value.

MOLECULE	pKi
C#CCN(Cc1ccc(O)c2ncccc12)C(C#N)CCC1CCN(Cc2ccccc2)CC1 (stereo not shown)	5.92

* * *

- ASSAY TARGET: ratMAO-B (Rattus norvegicus)
- PROTOCOL TEXT: MAO-B inhibition, radiometric method of Fowler and Tipton (14C PEA)
- Format: biochemical
- Design: MAO-A and MAO-B activities were determined in rat brain homogenate; from tissue; host or cells: rat brain homogenate per the methods
- MEASUREMENT PARAMETERS: 30 min pre-incubation at 37 °C; 20 µM PEA; mean ± standard error of the mean
pIC50: −log10 of the molar value.
pIC50 values for the molecules below.
EXPERIMENTAL READOUT: pIC50

MOLECULE	VALUE OBSERVED
C#CCN(Cc1ccc(O)c2ncccc12)C(C#N)C1CCN(Cc2ccccc2)CC1 (centres unmarked) [Compound 2]	4.40
C#CCN(CCCC1CCN(Cc2ccccc2)CC1)Cc1ccc(O)c2ncccc12 [Compound 7]	4.46
C#CCN(Cc1ccc(O)c2ncccc12)C(C#N)CC1CCN(Cc2ccccc2)CC1 (centres unmarked) [Compound 4]	4.91
C#CCN(Cc1ccc(O)c2ncccc12)CC1CCN(Cc2ccccc2)CC1 [Compound 3]	4.71
C#CCN(CCC1CCN(Cc2ccccc2)CC1)Cc1ccc(O)c2ncccc12 [Compound 5]	4.30

* * *

- ASSAY TARGET: electrophorus electricus acetylcholinesterase (eeAChE) (Electrophorus electricus, UniProt O42275)
- PROTOCOL TEXT: biochemical
- Format: biochemical

COMPOUND	SCALE UNIT	IC50
C#CCN(Cc1ccc(O)c2ncccc12)C(C#N)CCC1CCN(Cc2ccccc2)CC1 (stereo not shown)	µM	1.77

* * *

- ASSAY TARGET: MAO-A (Rattus norvegicus)
- Construct: from tissue; host or cells: rat brain homogenate per the methods
- PROTOCOL TEXT: Time-dependence of MAO-A inhibition (pre-incubation times)
- Type: biochemical
- MEASUREMENT PARAMETERS: pre-incubation time 0 min
pIC50: −log10 of the molar value.

COMPOUND	pIC50
C#CCN(Cc1ccc(O)c2ncccc12)C(C#N)CCC1CCN(Cc2ccccc2)CC1 (stereo not shown)	4.54

* * *

- ASSAY TARGET: MAO-A (Rattus norvegicus, UniProt P21396)
- Construct: from tissue; host or cells: rat brain homogenate per the methods
- PROTOCOL TEXT: Time-dependence of MAO-A inhibition (pre-incubation times)
- Format: biochemical
- MEASUREMENT PARAMETERS: pre-incubation time 30 min

COMPOUND	IC50 (µM)
C#CCN(Cc1ccc(O)c2ncccc12)C(C#N)CCC1CCN(Cc2ccccc2)CC1 (stereo not shown)	5.8
